experimentalDetails: qHTS assay to identify small molecule antagonists of the estrogen related receptor signaling pathway with the pleiotropic PPARgamma coactivator (PGC) from Tox21 10K library - cell viability counter screen (AID 1224840); note: nearly all actives have a fitted effect of over 40% in size
measurementContext: PGC/ERR reporter cells viability, CellTiter-Fluor, 17.5 h; series mostly up to 92.4 µM
Records with an inconclusive call do not appear. Activity calls are given as the source filed them. Calls come from the whole dose curve; as a rule, active = well fitted cell-killing curve with a large enough effect in the repeat runs (not every such curve was filed as active); inconclusive = weak or mixed curves, or effect the other way; inactive = no such curve, though single readings can be large or run the other way.
Can you answer with just one of these options? active, inactive

Data request: Hi, do you know how CC1(C)C2=CCCC(C)(C)[C@]23CC[C@H]1C3 came out in this test?
Data returned: inactive

Data request: Record request — test call for CCN(CC)CCNC(=O)c1ccc(NC(C)=O)cc1
Data returned: inactive

Data request: Look up the recorded call for CC(N)CN (stereo unspecified) in this test.
Data returned: inactive

Data request: Test call for this compound, please: CC(=N\O)/C(C)=N/O
Data returned: inactive

Data request: What did the test return for CC(=O)Oc1ccc(C(=C2CCCCC2)c2ccc(OC(C)=O)cc2)cc1 ?
Data returned: inactive

Data request: GET /call?item= CCC(C)(O)CCC=C(C)C (stereo unspecified) returns the recorded outcome of this test.
Data returned: inactive

Data request: For O=C(O)C(Cc1cc(I)c(O)c(I)c1)c1ccccc1 (stereo unspecified) , which call appears in the assay record?
Data returned: inactive

Data request: Could you kindly confirm the outcome this assay logged for CC(=O)Nc1ccc(N)cc1 ?
Data returned: inactive

Data request: Tell me the recorded outcome of this test for CCC1(C)CC(=O)NC1=O (stereo unspecified) .
Data returned: inactive

Data request: Assay result, entry O=C(Nc1ccc([N+](=O)[O-])cc1)Nc1ccc([N+](=O)[O-])cc1 — outcome?
Data returned: inactive

Data request: Please share the test call associated with Cc1oncc1C(=O)Nc1ccc(C(F)(F)F)cc1 .
Data returned: inactive

Data request: Kindly provide the recorded test outcome for the following compound: C=CC(C)(O)CCCC(C)CCCC(C)CCCC(C)C (stereo unspecified)
Data returned: inactive

Data request: Name the outcome recorded for Cc1oc(C)c(C(=O)Nc2ccccc2)c1C in the assay.
Data returned: inactive

Data request: Please indicate how the test categorized N#C/C(=C1/SC[C@@H](c2ccc(Cl)cc2Cl)S1)n1ccnc1 .
Data returned: inactive

Data request: Returns: the outcome recorded for CNC(=S)NC in this assay.
Data returned: inactive

Data request: Given CC(=O)Oc1ccc2c(c1)CC[C@@H]1[C@@H]2CC[C@]2(C)[C@@H](O)CC[C@@H]12 , state the outcome it received in this test.
Data returned: inactive

Data request: For this compound, state the assay outcome: CCC(=O)Oc1ccc(/C(CC)=C(\CC)c2ccc(OC(=O)CC)cc2)cc1
Data returned: inactive

Data request: What classification did CCC(C(=O)OCCOCCN(CC)CC)c1ccccc1 (stereo unspecified) end up with in this test?
Data returned: inactive

Data request: // outcome(item) with item = CCCOCCOCCO
Data returned: inactive

Data request: Please let me know the test result on file for CC(C)CCCC(=O)O .
Data returned: inactive

Data request: In this assay, the call recorded for CCOC(=O)C(C)Oc1ccc(Oc2nc3ccc(Cl)cc3o2)cc1 (stereo unspecified) was what?
Data returned: inactive

Data request: For CC(COc1ccc(C(C)(C)C)cc1)OS(=O)OCCCl (stereo unspecified) , which call appears in the assay record?
Data returned: active

Data request: Entry CCC(Cc1ccccc1)(C(=O)c1ccc(N2CCOCC2)cc1)N(C)C (stereo unspecified) : call = ?
Data returned: inactive

Data request: Record request — test call for Cc1ccc(/C=N/n2c(-c3ccccc3)csc2=S)cc1
Data returned: inactive

Data request: What call does the record list for COC(=O)c1cc(Cl)ccc1NS(=O)(=O)C(F)(F)F ?
Data returned: inactive

Data request: Please state the recorded outcome for this compound: C=CCNc1nc(NCC=C)nc(N2CCN(C(c3ccc(F)cc3)c3ccc(F)cc3)CC2)n1
Data returned: inactive
